# maps each entry to its logP
Give the figure only, with no unit attached.

> print(dat)
                                   compound  measured.metric  result.value
1                              Fc1ccc(F)cc1             logP          2.13
2              O=C(O)c1cccc([N+](=O)[O-])c1             logP          1.83
3                    N#Cc1ccc(/C=C/NC=O)cc1             logP          1.62
4                         CCOC(=O)Nc1ccccc1             logP           2.3
5   CC(C)C(=O)C(C#N)=NNc1cc(C(F)(F)F)ccc1Cl             logP          5.31
6  OCC1OC(n2cnc3c(S)ncnc32)C(O)C1O (centres undefined)             logP          -0.6

The reported value for NS(=O)(=O)c1cccc2cccnc12 in terms of logP is 0.42

The reported value for Cc1cc2ccccc2[nH]1 in terms of logP is 2.53

The reported value for OCCCCc1ccccc1 in terms of logP is 2.35

The reported value for CCNC in terms of logP is 0.15

The reported value for CNC1(c2ccccc2Cl)CCCCC1=O (centres undefined) in terms of logP is 2.18

The reported value for O=C(O)c1cc(I)cc(I)c1O in terms of logP is 4.56

The reported value for c1ccc2cc3c(ccc4ccccc43)cc2c1 in terms of logP is 5.76

The reported value for O=C(O)c1ccccc1Cl in terms of logP is 2.05

The reported value for CCc1cccc2ccccc12 in terms of logP is 4.4

The reported value for Nc1nc2c(ncn2COCCO)c(=O)[nH]1 in terms of logP is -1.56

The reported value for O=C(c1ccccc1)c1ccncc1 in terms of logP is 1.98

The reported value for O=NN(CCCl)C(=O)NC1CCCCC1 in terms of logP is 2.83

The reported value for O=C(O)c1cc(Br)ccc1O in terms of logP is 3.23

---

MEASURED_METRIC: logP
Give the figure only, with no unit attached.

Recorded logP, per entry:
> print(dat)
                                   compound  result.value
1  COc1ccc(OC)c(CC(C)N)c1 (configuration not stated)          1.72
2                        O=C(O)Cc1cccc(I)c1          2.62
3  CC(Oc1ccccc1)C(=O)NC1C(=O)N2C1SC(C)(C)C2C(=O)O (configuration not stated)           2.2

The reported value for COc1nnc(C(C)C)c(=O)n1N in terms of logP is -0.06

The reported value for CC(=O)C(C#N)=NNc1ccc(Cl)cc1 in terms of logP is 4.1

The reported value for CCOC(=O)C(C#N)=NNc1cc(Cl)cc(Cl)c1 in terms of logP is 3.82

The reported value for CC(=O)Nc1ccc([N+](=O)[O-])cc1 in terms of logP is 1.66

The reported value for N[C@@H](Cc1ccccc1)C(=O)O in terms of logP is -1.38

The reported value for Cc1cccc2c(C)cccc12 in terms of logP is 4.38

The reported value for NC(=O)c1ccccc1O in terms of logP is 1.28
